# tested-target: T1, SinR (Bacillus subtilis 168 (sequence …, UniProt P06533 1-111))
# T1 sequence: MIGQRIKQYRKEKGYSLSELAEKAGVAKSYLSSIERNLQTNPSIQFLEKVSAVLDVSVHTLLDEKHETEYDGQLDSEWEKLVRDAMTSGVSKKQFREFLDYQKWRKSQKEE
# protocol-notes: ITC; binding site 1 of two-sites model; N1 = 0.264 +/- 0.0114; ITC: buffer C (20 mM HEPES/NaOH, 500 mM NaCl; pH not stated for buffer C, 8.0 for buffers A/B), 25 °C; 30 µM SinR in cell, 150 µM IR-DNA titrated in
# experimental-conditions: protein: recombinant; tags: C-terminal His6; chain copies: 4; blunt
pKd: −log10 of the molar value.
readout-kind: pKd

Which pKd is reported for this binder? IR-DNA (SinR operator inverted repeat) (dsDNA) DNA 1: TTTGTTCTCTAAAGAGAACTTA DNA 2: TAAGTTCTCTTTAGAGAACAAA
~6.92

The reported numbers originate from paper PMC6192195.
